Where do these numbers come from? They come from patent US20240158446A1.

target: GDP-bound KRAS wild-type protein (Homo sapiens, UniProt P01116); experiment: Binding to KRAS by surface plasmon resonance (SPR), Single Cycle Kinetics; conditions: SPR Single Cycle Kinetics, GDP-bound KRAS wild-type protein, 1:1 binding model; read-out: KRAS KD
Sequence (P01116 whole entry): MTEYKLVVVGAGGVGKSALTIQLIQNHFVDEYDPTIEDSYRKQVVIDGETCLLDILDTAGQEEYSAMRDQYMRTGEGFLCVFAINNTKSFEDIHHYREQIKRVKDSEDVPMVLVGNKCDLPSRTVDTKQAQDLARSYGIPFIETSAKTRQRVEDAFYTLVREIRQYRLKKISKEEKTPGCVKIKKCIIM
pKd: −log10 of the molar value. Where a SMILES comes first, the peptide text is derived from it. Bridges are numbered along the chain shown (N, C = ends). [ ]: non-standard residue; d: D form. The star is where a group is joined. hPhe(3,5-F2-4-CF3) = N[C@@H](CCc1cc(F)c(C(F)(F)F)c(F)c1)C(=O)O; hPhe(3-Cl-4-CF3) = N[C@@H](CCc1ccc(C(F)(F)F)c(Cl)c1)C(=O)O; NPrPhe(4-CF3) = CCCN[C@@H](Cc1ccc(C(F)(F)F)cc1)C(=O)O; Piperazinyl(4-(3-oxetanyl)) = C1OCC1N1CCN(*)CC1; Abu(4,4,4-F3) = N[C@@H](CC(F)(F)F)C(=O)O; NMeGly(cPent) = CN[C@H](C(=O)O)C1CCCC1; Pro(4,4-F2) = O=C(O)[C@@H]1CC(F)(F)CN1; NMeD = CN[C@@H](CC(=O)O)C(=O)O; Ac4c(3-oxa) = NC1(C(=O)O)COC1; NMeL = CN[C@@H](CC(C)C)C(=O)O; Morpholide = C1CN(*)CCO1; NMeA = CN[C@@H](C)C(=O)O; Ac5c = NC1(C(=O)O)CCCC1; Aze = O=C(O)[C@@H]1CCN1; NEtG = CCNCC(=O)O; Sar = CNCC(=O)O
metric: pKd

[[record]]
compound = "CCOC[C@H]1C(=O)N[C@@H]([C@@H](C)CC)C(=O)N(C2CC2)CC(=O)N(C)[C@H]2C/C=C\\CCN(C2=O)[C@@H](Cc2ccc(C)cc2)C(=O)N(C)CC(=O)N[C@@H](CCc2ccc(C(F)(F)F)c(OC)c2)C(=O)N2C[C@H](OCC)C[C@H]2C(=O)NC2(CC(C)(C)C2)C(=O)N(C)[C@@H](CC(C)(C)C)C(=O)N(C)[C@H](C(=O)N(C)C)CC(=O)N1C [PP2724]"
data_value = 9.37

[[record]]
compound = "C#CC[C@H]1C(=O)N[C@@H]([C@@H](C)CC)C(=O)N(C)CC(=O)N(C)[C@H]2CCCCCN(C2=O)[C@@H](Cc2ccc(C(F)(F)F)cc2)C(=O)N(C)CC(=O)N[C@@H](CCc2cc(F)c(C(F)(F)F)c(F)c2)C(=O)N2C[C@H](OCC)C[C@H]2C(=O)NC2(CCC2)C(=O)N(C)[C@@H](C2CCCC2)C(=O)N(C)[C@H](C(=O)N(C)C)CC(=O)N1C [PP0666]"
data_value = 9.48

[[record]]
compound = "CCCN1C(=O)[C@@H]2CCN2C(=O)[C@H](C)N(C)C(=O)[C@H]([C@@H](C)CC)NC(=O)[C@H](CC(C)C)N(C)C(=O)C[C@@H](C(=O)N2CCN(C3COC3)CC2)N(C)C(=O)[C@H](C2CCCC2)N(C)C(=O)C2(CCCC2)NC(=O)[C@@H]2CCCN2C(=O)[C@H](CCc2ccc(C(F)(F)F)c(Cl)c2)NC(=O)CN(C)C(=O)[C@@H]1Cc1ccc(C(F)(F)F)cc1 [PP0184] ([NMeL]I[NMeA][Aze][NPrPhe(4-CF3)][Sar][hPhe(3-Cl-4-CF3)]P[Ac5c][NMeGly(cPent)][NMeD]-{Piperazinyl(4-(3-oxetanyl))}; lactam N-11)"
data_value = 9.49

[[record]]
compound = "CCCN1C(=O)CN(C)C(=O)CN(CC)C(=O)[C@H]([C@@H](C)CC)NC(=O)[C@H](CC(C)C)N(C)C(=O)C[C@@H](C(=O)N(C)C)NC(=O)[C@H](C2CCCC2)N(C)C(=O)C2(CCCC2)NC(=O)[C@@H]2CCCN2C(=O)[C@H](CCc2ccc(C(F)(F)F)c(Cl)c2)NC(=O)CN(C)C(=O)[C@@H]1Cc1ccc(C(F)(F)F)cc1 [PP0367] ([NMeL]I[NEtG][Sar][NPrPhe(4-CF3)][Sar][hPhe(3-Cl-4-CF3)]P[Ac5c][NMeGly(cPent)]D-NMe2; lactam N-11)"
data_value = 8.89

[[record]]
compound = "CCO[C@@H]1C[C@H]2C(=O)NC3(CCC3)C(=O)N(C)[C@@H](C3CCCC3)C(=O)N(C)[C@H](C(=O)N(C)C)CC(=O)N(C)[C@@H](C)C(=O)N[C@@H]([C@@H](C)CC)C(=O)N(C)CC(=O)N(C)[C@H]3CCCCCN(C3=O)[C@@H](Cc3ccc(C(F)(F)F)cc3)C(=O)N(C)CC(=O)N[C@@H](CCc3cc(F)c(C(F)(F)F)c(F)c3)C(=O)N2C1 [PP0476]"
data_value = 9.70

[[record]]
compound = "CCCN1C(=O)CN(C)C(=O)CN(C)C(=O)[C@H]([C@@H](C)CC)NC(=O)[C@H](CC(C)C)N(C)C(=O)C[C@@H](C(=O)N2CCOCC2)NC(=O)[C@H](C2CCCC2)N(C)C(=O)C2(CCCC2)NC(=O)[C@@H]2CC(F)(F)CN2C(=O)[C@H](CCc2ccc(C(F)(F)F)c(Cl)c2)NC(=O)CN(C)C(=O)[C@@H]1Cc1ccc(C(F)(F)F)cc1 [PP0321] ([NMeL]I[Sar][Sar][NPrPhe(4-CF3)][Sar][hPhe(3-Cl-4-CF3)][Pro(4,4-F2)][Ac5c][NMeGly(cPent)]D-Morpholide; lactam N-11)"
data_value = 9.00

[[record]]
compound = "CCCN1C(=O)CN(C)C(=O)CN(C)C(=O)[C@H](CC(F)(F)F)NC(=O)[C@H](CC(C)C)N(C)C(=O)C[C@@H](C(=O)N2CCOCC2)N(C)C(=O)[C@H](C2CCCC2)N(C)C(=O)C2(CCCC2)NC(=O)[C@@H]2CCCN2C(=O)[C@H](CCc2ccc(C(F)(F)F)c(Cl)c2)NC(=O)CN(C)C(=O)[C@@H]1Cc1ccc(C(F)(F)F)cc1 [PP0249] ([NMeL][Abu(4,4,4-F3)][Sar][Sar][NPrPhe(4-CF3)][Sar][hPhe(3-Cl-4-CF3)]P[Ac5c][NMeGly(cPent)][NMeD]-Morpholide; lactam N-11)"
data_value = 9.16

[[record]]
compound = "CCO[C@@H]1C[C@H]2C(=O)NC3(CCC3)C(=O)N(C)[C@@H](C3CCCC3)C(=O)N(C)[C@H](C(=O)N3CCOCC3)CC(=O)N(C)[C@@H](CC)C(=O)N[C@@H]([C@@H](C)CC)C(=O)N(C)CC(=O)N(C)[C@H]3CCCCN(C3=O)[C@@H](Cc3ccc(C(F)(F)F)cc3)C(=O)N(C)CC(=O)N[C@@H](CCc3cc(F)c(C(F)(F)F)c(F)c3)C(=O)N2C1 [PP0708]"
data_value = 10.59

[[record]]
compound = "CCC[C@H]1C(=O)N[C@@H]([C@@H](C)CC)C(=O)N(C)CC(=O)N(C)[C@H]2C/C=C\\CCN(C2=O)[C@@H](Cc2ccc(C)cc2)C(=O)N(C)CC(=O)N[C@@H](CCc2ccc3c(C)c(C)n(C)c3c2)C(=O)N2C[C@H](OCC)C[C@H]2C(=O)NC2(CC(C)(C)C2)C(=O)N(C)[C@@H](C2CCCC2)C(=O)N(C)[C@H](C(=O)N(C)C)CC(=O)N1C [PP2895]"
data_value = 8.49

[[record]]
compound = "CCCN1C(=O)CN(C)C(=O)CN(C)C(=O)[C@H]([C@@H](C)CC)NC(=O)[C@H](CC(C)C)N(C)C(=O)C[C@@H](C(=O)N2CCOCC2)N(C)C(=O)[C@H](C2CCCC2)N(C)C(=O)C2(COC2)NC(=O)[C@@H]2CCCN2C(=O)[C@H](CCc2cc(F)c(C(F)(F)F)c(F)c2)NC(=O)CN(C)C(=O)[C@@H]1Cc1ccc(C(F)(F)F)cc1 [PP0765] ([NMeL]I[Sar][Sar][NPrPhe(4-CF3)][Sar][hPhe(3,5-F2-4-CF3)]P[Ac4c(3-oxa)][NMeGly(cPent)][NMeD]-Morpholide; lactam N-11)"
data_value = 9.51

